# assay-details: The drug is tested on Eggerthella lenta strain: ATCC25559 for biotransformation. The drug concentrations were measured before and after a 12-h incubation by liquid-chromatography-coupled mass spectrometry (LC–MS)
# assay-context: 2 µM
recorded-metric: Bacterial Biotransformation

1. CN1CCc2c(c3ccccc3n2Cc2ccccc2)C1.CN1CCc2c(c3ccccc3n2Cc2ccccc2)C1.O=S(=O)(O)c1cccc2c(S(=O)(=O)O)cccc12 ... Compound NOT metabolized
2. CN1CCN(C(=O)O[C@H]2c3nccnc3C(=O)N2c2ccc(Cl)cn2)CC1 [ESZOPICLONE] ... Compound NOT metabolized
3. CC(Oc1c(Cl)cccc1Cl)C1=NCCN1 (stereo unspecified) [LOFEXIDINE] ... Compound metabolized
4. CCCCC(=O)N(Cc1ccc(-c2ccccc2-c2nnn[nH]2)cc1)[C@H](C(=O)O)C(C)C ... Compound NOT metabolized
5. Cc1nc2n(c(=O)c1CCN1CCC(c3noc4cc(F)ccc34)CC1)CCCC2O (stereo unspecified) [PALIPERIDONE] ... Compound NOT metabolized
6. COC1=C(OC)C(=O)C(CCCCCCCCCCO)=C(C)C1=O [IDEBENONE] ... Compound NOT metabolized
7. COc1ccc2c(c1OC)C(=O)O[C@@H]2[C@H]1c2c(cc3c(c2OC)OCO3)CCN1C [NOSCAPINE] ... Compound NOT metabolized
8. Cc1nc(Nc2ncc(C(=O)Nc3c(C)cccc3Cl)s2)cc(N2CCN(CCO)CC2)n1.O [DASATINIB] ... Compound NOT metabolized
9. CNC(=C[N+](=O)[O-])NCCSCc1ccc(CN(C)C)o1 [RANITIDINE] ... Compound metabolized
10. C#C[C@]1(O)CC[C@H]2[C@@H]3CCC4=CC(=O)CC[C@@H]4[C@H]3CC[C@@]21CC [LEVONORGESTREL] ... Compound NOT metabolized
11. OCCN1CCN(CCCN2c3ccccc3Sc3ccc(C(F)(F)F)cc32)CC1 [FLUPHENAZINE] ... Compound NOT metabolized
12. CC(C)C[C@H]1C(=O)N2CCC[C@H]2[C@]2(O)O[C@](NC(=O)[C@@H]3C=C4c5cccc6[nH]c(Br)c(c56)C[C@H]4N(C)C3)(C(C)C)C(=O)N12.CS(=O)(=O)O [BROMOCRIPTINE MESYLATE] ... Compound metabolized
13. C[C@@H]1CC[C@H]2[C@@H](C)C(=O)O[C@@H]3O[C@@]4(C)CC[C@@H]1[C@]32OO4 [ARTEMISININ] ... Compound metabolized
14. CCCN(CCC)CCc1cccc2c1CC(=O)N2 [ROPINIROLE] ... Compound NOT metabolized
15. O=C(O)c1cc(/N=N/c2ccc(S(=O)(=O)Nc3ccccn3)cc2)ccc1O [SULFASALAZINE] ... Compound metabolized
16. COc1cc(NC(C)CCCN)c2ncccc2c1.O=P(O)(O)O.O=P(O)(O)O (stereo unspecified) [PRIMAQUINE PHOSPHATE] ... Compound NOT metabolized
